Biological target: T1, angiotensin I converting enzyme (ACE) (UniProt P12821)
T1 chain: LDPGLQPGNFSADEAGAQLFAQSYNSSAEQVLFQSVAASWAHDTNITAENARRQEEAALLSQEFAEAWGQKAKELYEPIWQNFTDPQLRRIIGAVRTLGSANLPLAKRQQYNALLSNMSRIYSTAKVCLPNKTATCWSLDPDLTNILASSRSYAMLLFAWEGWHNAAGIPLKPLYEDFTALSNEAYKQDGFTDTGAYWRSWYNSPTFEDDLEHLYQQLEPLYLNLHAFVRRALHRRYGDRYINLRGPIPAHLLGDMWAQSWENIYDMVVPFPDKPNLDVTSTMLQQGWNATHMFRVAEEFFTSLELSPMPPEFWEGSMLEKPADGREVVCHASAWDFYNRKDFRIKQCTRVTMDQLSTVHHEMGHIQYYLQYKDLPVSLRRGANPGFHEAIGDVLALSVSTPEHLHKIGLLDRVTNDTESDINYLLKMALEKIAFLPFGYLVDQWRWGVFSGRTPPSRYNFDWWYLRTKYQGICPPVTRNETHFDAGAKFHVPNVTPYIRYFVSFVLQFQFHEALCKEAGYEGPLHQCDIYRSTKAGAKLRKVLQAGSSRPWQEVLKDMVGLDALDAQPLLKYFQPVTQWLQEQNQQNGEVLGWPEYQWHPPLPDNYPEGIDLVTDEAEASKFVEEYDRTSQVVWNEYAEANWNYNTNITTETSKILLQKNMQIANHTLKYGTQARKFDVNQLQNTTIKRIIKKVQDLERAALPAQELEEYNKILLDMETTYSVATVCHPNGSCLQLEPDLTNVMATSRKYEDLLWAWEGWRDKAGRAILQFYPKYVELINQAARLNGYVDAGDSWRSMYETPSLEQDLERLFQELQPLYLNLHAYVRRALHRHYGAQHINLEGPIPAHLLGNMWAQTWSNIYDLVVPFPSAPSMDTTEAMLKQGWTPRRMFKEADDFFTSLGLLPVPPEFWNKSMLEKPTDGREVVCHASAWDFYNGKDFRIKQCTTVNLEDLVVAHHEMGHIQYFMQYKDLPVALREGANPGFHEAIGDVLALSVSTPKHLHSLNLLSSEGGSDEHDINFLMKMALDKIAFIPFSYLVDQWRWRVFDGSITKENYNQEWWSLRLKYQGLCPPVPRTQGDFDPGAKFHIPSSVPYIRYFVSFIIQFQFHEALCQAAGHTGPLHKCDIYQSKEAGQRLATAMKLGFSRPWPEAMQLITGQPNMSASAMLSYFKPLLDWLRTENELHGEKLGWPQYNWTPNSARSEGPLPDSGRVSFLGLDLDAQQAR
Assay: other, ACE inhibition
Measurement Kind: IC50

Ask: Item under review: ALNEINQFY [ALNEINQFY (CNαS2-(f81-89))] . Reported IC50?
Reply: 219 µM

Ask: Item under review: FPQYLQY [FPQYLQY (CNαS2-(f92-98))] . Reported IC50?
Reply: 14 µM

Ask: Item under review: FALPQYLK [FALPQYLK (CNαS2-(f174-181))] . Reported IC50?
Reply: 4.3 µM

Ask: Item under review: FALPQY [FALPQY (CNαS2-(f174-179))] . Reported IC50?
Reply: 4.3 µM

Ask: Item under review: TVY [TVY (CNαS2-(f182-184))] . Reported IC50?
Reply: 15 µM

Ask: Item under review: NMAINPSK [NMAINPSK (CNαS2-(f25-32))] . Reported IC50?
Reply: 60 µM

Ask: Item under review: ALNEINQFYQK [ALNEINQFYQK (CNαS2-(f81-91))] . Reported IC50?
Reply: 26.4 µM
